Test system: PC-3
MEASUREMENT_NOTES: NCI tumour cell line growth inhibition, 48 h
Activity calls are given as the source filed them. Rule as the data show it: active = GI50 up to about 1.1 µM and inactive = higher.

| COMPOUND | GI50 |
| --- | --- |
| CC1(C)CC(=O)C(CC(C(=O)C(=O)Nc2cc(C(F)(F)F)ccc2Cl)C(=O)c2ccco2)C(=O)C1 (centres undefined) | > 100 µM (inactive) |
| CN(C)CCNC(=O)c1cccc2c(NC(CCCNC(=N)N)C(=O)O)c3ccccc3nc12 (centres undefined) | 9.1 µM (inactive) |
| COc1ccc(C(=O)c2c(-c3ccccc3NC(=O)C(F)(F)F)[nH]c3ccccc23)cc1 | 5.92 µM (inactive) |
| COC(=O)C(=O)C(C(=O)C(=O)Nc1nc2ccc(C)cc2s1)c1nc2ccc([N+](=O)[O-])cc2nc1O (centres undefined) | > 100 µM (inactive) |

###

Tested on: OVCAR-4
MEASUREMENT_NOTES: NCI tumour cell line growth inhibition, 48 h
Active and inactive are the calls of the source. Cut-off read from the data, not from the text of the source: active = GI50 up to about 1.1 µM and inactive = higher.
QUANTITY_MEASURED: GI50

| COMPOUND | TEST_RESULT |
| --- | --- |
| COC([C@@H](OC(=O)c1ccccc1)[C@H](OC(=O)c1ccccc1)C(O)COC(=O)c1ccccc1)n1cc(C)c(=O)[nH]c1=O (stereo not given in full) | 7.83 µM (inactive) |
| Cc1oc2c(C)c3oc(=O)cc(C)c3cc2c1CN1C(=O)C2OCCOCCOCCOCCOCCO[C@H]2C1=O (stereo not given in full) | > 100 µM (inactive) |
| Nc1nc(Cl)c(N)c(NCC2(CO)CC(CCCc3ccccc3)C2)n1 (stereo not given) | > 33.7 µM (inactive) |
| CC(=O)CCC[C@@H](C)[C@@H]1O[C@H]([C@@]2(C)CCC(=O)O2)C[C@H]2C(CSc3ccccc3)C(=O)O[C@@H]12 (stereo not given in full) | 13.2 µM (inactive) |
| Cc1cc(OCC(O)CO)ccc1-c1ccccc1 (stereo not given) | > 100 µM (inactive) |
| O=C(O)c1c(O)c2cc(Br)ccc2oc1=O | > 100 µM (inactive) |
| O=c1c2ccccc2nc2n1-c1ccccc1SC2 | 64.3 µM (inactive) |
| COc1ccc(/C=N/n2c(Cc3ccccc3)n[nH]c2=O)c(OC)c1 | > 58.6 µM (inactive) |
| CCC(CCCC[C@H]1CC[C@@H]2CC(=O)C[C@H]12)OC (stereo not given in full) | > 100 µM (inactive) |
| [N-]=[N+]=NC1=C(c2ccccc2)C(=O)c2cccc3cccc1c23 | 46.7 µM (inactive) |

###

Tested on: 786-0
MEASUREMENT_NOTES: NCI tumour cell line growth inhibition, 48 h
Activity calls are given as the source filed them. No stated cut-off is given here; in the data, active = GI50 up to about 1.1 µM and inactive = higher. Square brackets hold non-standard residues; d marks the D form. Peptide text beside a SMILES is read from it. * marks the point of attachment. Tyr(3-Br) = N[C@@H](Cc1ccc(O)c(Br)c1)C(=O)O; Boc = CC(C)(C)OC(=O)*
Possible outcomes: 1 for active, 0 for inactive

| COMPOUND | MEASURED_ON | CATEGORY_LABEL |
| --- | --- | --- |
| Cc1ccc(Oc2cc(C)ccc2P(=O)(O)O)cc1 | 786-0 | 0 |
| C#CC(O)/C=C/C(O)CCCC(O)CC#CC(O)C#CCCCCC(O)/C=C/CCCC(=O)CCCCCCCCCCCCCCCC(O)C(O)C#CC(=O)O (configuration not stated) | 786-0 | 0 |
| C/C(Cc1ccc2c(c1)OCO2)=N\NC(=O)C(C)Sc1nnc(SC(C)C(=O)N/N=C(\C)Cc2ccc3c(c2)OCO3)s1 (configuration not stated) | 786-0 | 0 |
| NC(CCc1nc(-c2ccc(Cl)cc2)cs1)C(=O)O (configuration not stated) | 786-0 | 0 |
| O=c1c2nn[nH]c2nc2n1CC(c1ccccc1)S2 (configuration not stated) | 786-0 | 0 |
| C#CCC[C@@H]1O[C@@]1(C)CC/C=C(\C)CC/C=C/C=O | 786-0 | 0 |
| [N-]=[N+]=NC1=C(c2ccccc2)C(=O)c2cccc3cccc1c23 | 786-0 | 0 |
| CC1(C)C2CCC(=O)C1C(OCc1ccccc1)C2 (configuration not stated) | 786-0 | 0 |
| O=c1c2ccccc2nc2n1-c1ccccc1SC2 | 786-0 | 0 |
| NS(=O)(=O)c1ccc(NC(=O)c2cccc3cc4ccccc4nc23)cc1 | 786-0 | 0 |
| CCOC(=O)c1c2c(n(Cc3ccccc3)c1C)C(=O)C(=O)c1ccccc1-2 | 786-0 | 1 |
| C=CCCCC1(C)CCCCNC1=O (configuration not stated) | 786-0 | 0 |
| S=C(c1c[nH]c2ccccc12)N1CCCCC1 | 786-0 | 0 |
| Cc1cccc2c1C(=O)C1(Cc3ccccc3C1=O)C2 (configuration not stated) | 786-0 | 0 |
| CCCCC[C@@H]1OCO[C@@]2(C)/C=C(C)\C=C/C(=O)O[C@H]([C@@H](C)[C@@H](O)[C@H](C)[C@@]3(O)C[C@@H](O[C@H]4C[C@@H](O)[C@H](O)[C@@H](C)O4)[C@H](C)[C@@H](C)O3)[C@@H](OC)/C=C\C=C(\C)C[C@@H]1[C@@H]2O (stereo in doubt) | 786-0 | 1 |
| N=C(NCc1ccccc1)N/N=C\c1ccnc2ccccc12 | 786-0 | 0 |
| Cc1cc(C)c(C#N)c(SC(=S)NC(=O)c2ccccc2)n1 | 786-0 | 0 |
| O=[N+]([O-])c1ccc2c(Nc3ccccc3-c3ccccc3Nc3c4ccccc4nc4cc([N+](=O)[O-])ccc34)c3ccccc3nc2c1 | 786-0 | 0 |
| COC(=O)[C@H](Cc1ccc(O)c(Br)c1)NC(=O)[C@H](Cc1ccc(O)cc1)NC(=O)OC(C)(C)C (Boc-Tyr-[Tyr(3-Br)]-OMe) | 786-0 | 0 |
| CCCCCCCC(=O)OC(COC(=O)Cc1ccccc1)COC(=O)C(C)(C)C (configuration not stated) | 786-0 | 0 |
| CCOC(=O)N1C/C(=C\c2ccc(N(C)C)cc2)C(=O)/C(=C/c2ccc(N(C)C)cc2)C1 | 786-0 | 0 |
| CN(C)c1ccc(O[Si](Oc2ccc(N(C)C)cc2)(Oc2ccc(N(C)C)cc2)Oc2ccc(N(C)C)cc2)cc1 | 786-0 | 0 |
| Cc1cc(N(CCC#N)CCC#N)ccc1/N=N/c1ccc([N+](=O)[O-])cc1 | 786-0 | 0 |
| CC(=O)[C@]1(O)Cc2c(O)c3c(c(O)c2[C@@H](OC2CC(N)C(O)C(C)O2)C1)C(=O)c1c(OCc2ccccc2)cccc1C3=O (some centres not stated) | 786-0 | 1 |
| O=c1[nH]nc(Cc2ccccc2)n1-n1cnnc1 | 786-0 | 0 |
| N#C/C(=C\c1ccc(Cl)cc1)c1nc(-c2cc3ccccc3oc2=O)cs1 | 786-0 | 0 |
| CC1(C)S[C@@H]2[C@H](N3C(=O)c4ccccc4C3=O)CN2[C@H]1NC(=O)N[C@@H]1N2C[C@@H](N3C(=O)c4ccccc4C3=O)[C@H]2SC1(C)C | 786-0 | 0 |
| O=c1oc2ncccc2n1Cc1ccc([N+](=O)[O-])cc1 | 786-0 | 0 |
| CCOC(=O)CSc1[nH]c2nc(C)nc(Cl)c2c1C#N | 786-0 | 0 |
| Nc1nc2c(c(-c3cccc(Cl)c3)n1)COC/C2=C\c1cccc(Cl)c1 | 786-0 | 0 |
| Cc1ccc2c(c1)NC(c1ccc(C(=O)O)cc1)c1cccn1-2 (configuration not stated) | 786-0 | 0 |
| C[C@H](CCC(=O)O)[C@H]1CC[C@H]2[C@@H]3[C@H](O)[C@H](O)[C@@H]4C[C@H](O)CC[C@]4(C)[C@H]3CC[C@]12C [HYOCHOLIC ACID] | 786-0 | 0 |
| O=C1NC(N2CCCC(CO)C2)=N/C1=C\c1ccccc1 (configuration not stated) | 786-0 | 0 |
| CCN(CC)C(=S)SNCc1ccc(S(N)(=O)=O)cc1 | 786-0 | 0 |
| CN(C)CCn1cnc2sc3ccccc3c21 | 786-0 | 0 |
| CC(C)(C)[Si](C)(C)OCC1OC(n2ccc(=O)[nH]c2=O)C(O[Si](C)(C)C(C)(C)C)/C1=N/O (configuration not stated) | 786-0 | 0 |
| CCOC(=O)C(C)(C)Oc1ccc2c(=O)cc(-c3ccc(Cl)cc3)oc2c1 | 786-0 | 0 |

###

Recorded GI50 by entry
Test system: RXF 631
MEASUREMENT_NOTES: NCI tumour cell line growth inhibition, 48 h
Activity calls are given as the source filed them. Rule as the data show it: active = GI50 up to about 1.1 µM and inactive = higher.

| MOLECULE | GI50 |
| --- | --- |
| O=[N+]([O-])c1ccc2c(Nc3ccccc3-c3ccccc3Nc3c4ccccc4nc4cc([N+](=O)[O-])ccc34)c3ccccc3nc2c1 | 5.9 µM (inactive) |
| Cc1cccc(C)c1NC(=O)CCCC(=O)CC(=O)/C=C/c1ccccc1 | > 100 µM (inactive) |
| Cc1cccc(Cl)c1NC(N)=S | 35.9 µM (inactive) |
| Cc1ccc2nc(/C(=C/c3ccc(/C=C(\NC(=O)c4ccccc4)c4nc5ccc(C)cc5[nH]4)c(C)c3)NC(=O)c3ccccc3)[nH]c2c1 | 19.2 µM (inactive) |
| NNC(=O)N/N=C1/C(=O)N(c2ccc(Cl)c(Cl)c2)C(=O)C(=O)C1c1nc2ccccc2o1 (centres undefined) | 76.4 µM (inactive) |
| COc1ccc(OC)c2[nH]c(Sc3c([N+](=O)[O-])ncn3C)nc12 | 18.5 µM (inactive) |
| O=[N+]([O-])c1ccc2nc3ccscc-3c2c1 | 14.8 µM (inactive) |
| O=C1N2Cc3c4ccc5c3CN3C(=O)N6Cc7c(ccc(c7CN1C6(c1ccccc1)C23c1ccccc1)OCCOCCNCCOCCO4)OCCOCCNCCOCCO5 (centres undefined) | 31.4 µM (inactive) |
| CN(C)CCn1cnc2sc3ccccc3c21 | > 100 µM (inactive) |

Cited source for all entries: ChEMBL document CHEMBL1201862
